Recorded solubility values for a group of sequences are listed next.
- procedure-text: solubility in phosphate buffer with/without 0.9% NaCl, pH serially lowered with acetic acid, concentration remaining in solution
- Type: physicochemical
- measurement-parameters: pH 10, PBS with 0.9% NaCl, pH 10; read-out: Solubility pH 10
Ends that are not written are not given here.
# value in µg/mL; strip the unit string

Below, 3 sequences whose answers are already recorded.
Q: Reported solubility for NEGIEITEVTAPPEDNPVEDSQ [SEQ ID NO: 31] : what is it?
Ans: 881

Q: Reported solubility for GEDLQQEDGPTGEPQQEDDEFL [SEQ ID NO: 29] : what is it?
Ans: 708

Q: Reported solubility for DSQVIVEEVSIFPVEEQQEVPPD [SEQ ID NO: 32] : what is it?
Ans: 413

More entries:
Q: Reported solubility for DMEEMMSEQENPDSSEPVVEDE [SEQ ID NO: 30] : what is it?
Ans: 552
